# ASSAY: NCI Yeast Anticancer Drug Screen. Data for the cln2 rad14 strain (AID 165);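 further: 0% = growth equal to vehicle treated cultures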
# CONDITION NOTES: S. cerevisiae cln2 rad14 strain, at 5.0 µM (retest, dose inferred, filed as 0.5), hits give high values
About 79,000 compounds went through this panel and 15% of them were active in at least one assay; those are over-represented in the sample as a whole.
Below is a list of entries, each paired with its recorded growth inhibition value.
Give the quantity in %, number only.

Consider the worked cases shown below.
| MOLECULE | DISPLAY UNIT | growth inhibition |
| --- | --- | --- |
| CCC(c1ccc(Cl)cc1)C(C#N)c1ccccc1 (stereo unspecified) | % | 2 |
| CCc1ccccc1NC(=O)C(=O)CC(=O)c1ccc(Cl)s1 | % | -2 |
| Oc1c(Cl)cc(Cl)c(Cc2c(Cl)cc(Cl)c(O)c2Cl)c1Cl | % | 98 |
| O=C1OC(C2OC(=O)C(=O)C2C(=O)c2ccc(Cl)c(Cl)c2)C(C(=O)c2ccc(Cl)c(Cl)c2)C1=O (stereo unspecified) | % | 4 |
| CN(C(=O)c1ccc(Cl)cc1)C(=S)N1CCN(c2ccccc2)CC1 | % | 3 |

Now for a further molecule.
Return reported growth inhibition; argument: O=c1c(O)c(-c2ccc(Cl)cc2)oc2cc(O)ccc12
-7

----------
# ASSAY: NCI Yeast Anticancer Drug Screen. Data for the mec2-1 strain (AID 157)
# CONDITION NOTES: S. cerevisiae mec2-1 strain, at 50.0 µM
Compounds without any hit were thinned out: in the full panel of roughly 79,000, 15% have a hit. Calls of active or inactive are those of the source. No stated cut-off is given here; in the data, active means growth inhibition above about 70%; inactive means the rest.
Give one outcome, nothing more. List: active, inactive

Solved cases (2 shown):
| COMPOUND | ANSWER LABEL |
| --- | --- |
| CN1CCN(CC(C(=O)O)(c2ccccc2)c2ccccc2)CC1 | inactive |
| O=C(CCC(NC(=O)OCc1ccccc1)C(=O)OCc1ccccc1)NC(CSCc1ccccc1)C(=O)NCC(=O)Oc1c(Cl)c(Cl)c(Cl)c(Cl)c1Cl (stereo not given) | inactive |

What did this assay record as the result for Cc1ccc(S(=O)(=O)c2cc(O)c(O)c3ccc(Br)cc23)cc1 ?
active

Note, next up: CCn1cnc2[nH]cc(C#N)c2c1=O
inactive

----------
# ASSAY: NCI Yeast Anticancer Drug Screen. Data for the cln2 rad14 strain (AID 165);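 further: 0% = growth equal to vehicle treated cultures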
# CONDITION NOTES: S. cerevisiae cln2 rad14 strain, at 50.0 µM (retest, dose inferred, filed as 5.0), hits give high values
The panel holds about 79,000 compounds, 15% with a hit somewhere; the sample as a whole holds those more often.
OBSERVABLE: growth inhibition (%)
Return type: number; implicit unit %.

| MOLECULE | OBSERVABLE | NUMERIC READOUT |
| --- | --- | --- |
| O=C(O)c1nnsc1-c1ccc(-c2snnc2C(=O)O)cc1 | growth inhibition | 0 |
| CCOC(=O)C1CSC(c2c(CO)cnc(C)c2O)N1 (centres undefined) | growth inhibition | 7 |
| O=c1nc(NC(c2ccccc2)(c2ccccc2)c2ccccc2)ccn1CCNCCn1ccc(NC(c2ccccc2)(c2ccccc2)c2ccccc2)nc1=O | growth inhibition | 97 |

Turning now to a further molecule:
For the molecule shown here, CCOC(CN(C)C(=O)Nc1ccc(Cl)c(Cl)c1)OCC , give the reported growth inhibition.
45
